B1: ATE1 (parent)
chain: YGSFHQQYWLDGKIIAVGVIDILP

# Variants of: B1
# Method Description: protein stability index of a GFP-peptide fusion (GPS, HEK-293T) (PSI 1-6); higher = more stable;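 also: lentivirally expressed fusions sorted by FACS into six bins by GFP to DsRed ratio, PSI derived from sequencing read proportions per bin multiplied by bin number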
# Condition: c terminus: a fixed tail appended
Measurement Label: protein stability index

> print(dat)
   variant.name        measurement.label  quantitative.readout
1          G18N  protein stability index                  2.31
2          I14K  protein stability index                  2.41
3          I14W  protein stability index                  2.62
4          K13N  protein stability index                  2.78
5           S3T  protein stability index                  2.22
6          V19L  protein stability index                  2.41
7          I15L  protein stability index                  2.75
8          I20M  protein stability index                  2.59
